Test system: Saccharomyces cerevisiae
Method notes: protein stability index of tFT-peptide fusion in deletion strain of DOA10 (PSI (0-1 scale)); higher = more stable (slower turnover)
Decide using protein stability index: a value greater than or equal to 0.6 is class 1, a smaller one is class 0.

1) GLYMCFVGCWFR: class 0
2) AITLPMCPLRLR: class 1
3) GLNMCSVGCWFR: class 1
4) GLYMCSVTCWFR: class 0
5) RVTRLDAIQFRI: class 1

Task: Confirm if protein stability index reported for the sequence CLVSLPIILFFR is 0.6 or above.
Output: class 0

Task: Confirm if protein stability index reported for the sequence VLYMCSVGCWFR is 0.6 or above.
Output: class 0

Task: Confirm if protein stability index reported for the sequence AITLPMCPGLLR is 0.6 or above.
Output: class 1

Task: Confirm if protein stability index reported for the sequence RPLRVLLPLYFR is 0.6 or above.
Output: class 1

----------
Tested on: Saccharomyces cerevisiae
Method notes: protein stability index of tFT-peptide fusion (C-terminal peptide) (PSI (0-1 scale)); higher = more stable (slower turnover)
Condition label: genetic background: wild type; temperature: 37 C
Decide using protein stability index: a value greater than or equal to 0.4 is criterion met, a smaller one is criterion not met.

Take a look at these entries with their results.
1. RGAVLLPSLWVV: criterion met
2. LFKFCLGIPLFL: criterion met
3. LSLPTPLPSPPA: criterion met
4. ESRDRRVGIANW: criterion met
5. RSFNVGLELLVW: criterion met
6. GGYCQMFFLYFR: criterion not met
7. IKRLKEVARHVS: criterion met
8. QGPHISQYRTHR: criterion met
9. RVFRLDRRLQVV: criterion not met
10. LVYLVCAYSECE: criterion met

Task: Confirm if protein stability index reported for the sequence WWADRLVGVCIV is 0.4 or above.
Output: criterion met

Task: Confirm if protein stability index reported for the sequence YILRLMMEGICL is 0.4 or above.
Output: criterion met

Task: Confirm if protein stability index reported for the sequence CSRVVGLFFLVV is 0.4 or above.
Output: criterion met

Task: Confirm if protein stability index reported for the sequence QVLISLYVHGYF is 0.4 or above.
Output: criterion met

Task: Confirm if protein stability index reported for the sequence PFRSAYYLLFLL is 0.4 or above.
Output: criterion not met

Task: Confirm if protein stability index reported for the sequence VYTVGFVCWLVY is 0.4 or above.
Output: criterion not met

Task: Confirm if protein stability index reported for the sequence NNGLLLDILIKA is 0.4 or above.
Output: criterion met

Task: Confirm if protein stability index reported for the sequence LHIHGAGIVCAG is 0.4 or above.
Output: criterion met

----------
Test system: Saccharomyces cerevisiae
Method notes: protein stability index of tFT-peptide fusion (C-terminal peptide) (PSI (0-1 scale)); higher = more stable (slower turnover)
Condition label: genetic background: cdc53-1; temperature: 37 C
Decide using protein stability index: a value greater than or equal to 0.5 is Criterion met, a smaller one is Criterion not met.

Take a look at these entries with their results.
1) WSSWFLWVIFRL: Criterion not met
2) VCYLMRSLTFAY: Criterion met
3) YFFVCYFSLLVF: Criterion not met
4) APLLPPALALTC: Criterion met

Task: Confirm if protein stability index reported for the sequence NVWCWGASCFFC is 0.5 or above.
Output: Criterion met

Task: Confirm if protein stability index reported for the sequence TKKGQTRPSRTD is 0.5 or above.
Output: Criterion met

Numbers sourced from the supplement of paper PMC10724198.
